Values from ChEMBL document CHEMBL1139441

List of Ki values.
molecular target: Calpain-1 catalytic subunit (Sus scrofa); experiment: Binding affinity against porcine erythrocyte calpain I was determined
Sequence (P35750 whole entry): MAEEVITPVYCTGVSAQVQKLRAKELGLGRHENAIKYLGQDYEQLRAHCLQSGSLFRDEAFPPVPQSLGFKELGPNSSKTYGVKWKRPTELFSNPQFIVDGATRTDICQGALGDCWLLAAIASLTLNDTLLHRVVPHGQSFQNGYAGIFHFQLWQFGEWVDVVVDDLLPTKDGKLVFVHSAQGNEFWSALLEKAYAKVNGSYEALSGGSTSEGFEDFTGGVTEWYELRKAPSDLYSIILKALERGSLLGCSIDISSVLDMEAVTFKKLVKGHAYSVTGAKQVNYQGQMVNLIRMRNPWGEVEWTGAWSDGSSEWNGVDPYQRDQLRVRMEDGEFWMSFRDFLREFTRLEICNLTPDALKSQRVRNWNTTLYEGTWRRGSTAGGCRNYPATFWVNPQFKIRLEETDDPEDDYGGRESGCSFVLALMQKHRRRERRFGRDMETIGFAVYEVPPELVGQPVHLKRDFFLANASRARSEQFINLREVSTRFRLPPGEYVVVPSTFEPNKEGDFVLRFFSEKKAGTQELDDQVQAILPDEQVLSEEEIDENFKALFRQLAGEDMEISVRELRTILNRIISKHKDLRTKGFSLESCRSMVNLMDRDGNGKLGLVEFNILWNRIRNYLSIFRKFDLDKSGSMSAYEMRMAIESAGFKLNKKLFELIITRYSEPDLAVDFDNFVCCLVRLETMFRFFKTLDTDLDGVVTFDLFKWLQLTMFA
The answer is to be given in nM; state only the numeric part.

Sample answers from the record:
CC(C)CC(NC(=O)OCc1ccccc1)C(=O)N[C@@H](Cc1ccccc1)C(=O)C(=O)NNCc1ccccc1 (stereo partly specified)    4.7
COC(=O)[C@H](Cc1ccccc1)NC(=O)C(=O)[C@H](Cc1ccccc1)NC(=O)C(CC(C)C)NC(=O)OCc1ccccc1 (stereo partly specified)    680
COC(=O)[C@@H](Cc1ccccc1)NC(=O)C(=O)[C@H](Cc1ccccc1)NC(=O)C(CC(C)C)NC(=O)OCc1ccccc1 (stereo partly specified)    940
CC(C)CC(NC(=O)OCc1ccccc1)C(=O)N[C@@H](Cc1ccccc1)C(=O)C(=O)NCCc1ccccc1 (stereo partly specified)    54

Task: Would you mind telling me what Ki value was observed for CC(C)CC(NC(=O)OCc1ccccc1)C(=O)N[C@@H](Cc1ccccc1)C(=O)C(=O)N[C@@H](Cc1ccccc1)C(=O)O (stereo partly specified) ?
Output: 830
